- TARGET OF ASSAY: AKR1B10 (Homo sapiens)
- Construct: 6xHis; made in house; host or cells: E. coli BL21 (DE3)
- Sequence (O60218 whole entry): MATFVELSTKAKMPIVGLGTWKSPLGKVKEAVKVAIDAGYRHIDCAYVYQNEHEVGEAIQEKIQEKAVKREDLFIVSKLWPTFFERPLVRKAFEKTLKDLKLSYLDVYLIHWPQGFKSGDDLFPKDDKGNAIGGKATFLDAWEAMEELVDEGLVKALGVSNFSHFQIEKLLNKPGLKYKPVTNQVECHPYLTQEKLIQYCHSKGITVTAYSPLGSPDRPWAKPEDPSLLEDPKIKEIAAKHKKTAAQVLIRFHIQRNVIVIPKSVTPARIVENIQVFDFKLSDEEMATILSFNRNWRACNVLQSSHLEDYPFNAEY
- METHOD DESCRIPTION: AKR1B10-mediated farnesal reduction inhibition
- Type: biochemical
- DETAILS: AKR1B10, Farnesal [5 µM], mean ± SD
- Protocol: The carbonyl-reducing enzymes AKR1A1, AKR1B1, AKR1B10 were prepared in an Escherichia coli expression system according to previously published methods: plasmids of AKR1A1 and AKR1B1 were friendly gifts from Prof. […] Purification progress was monitored by SDS-PAGE of the obtained fractions (not shown). Enzyme concentrations were determined using a Qubit 2.0 fluorometric quantitation system (Life Technologies, Carlsbad, CA, USA) according to the manufacturer’s instructions. […]
Collected IC50 values appear next to each entry.
The answer is to be given in µM; state only the numeric part.

-- ask Report measured IC50; entry is CC(C)=CCC1=C(O)C(O)(CC=C(C)C)C(=O)C(C(=O)C(C)C)=C1O (stereo in doubt) [Compound 2, cohumulone]
-- reply 29.8

-- ask Look up and report measured IC50 for this entry: CCC(C)C(=O)C1=C(O)C(CC=C(C)C)=C(O)[C@](O)(CC=C(C)C)C1=O (stereo partly drawn) [Compound 1, adhumulone]
-- reply 29.3

-- ask Dear colleague, please send me the reported IC50 for CC(C)=CCC1C(=O)C(C(=O)CC(C)C)=C(O)C(O)(CC=C(C)C)C1=O (stereo not drawn) [Compound 3, n-humulone] when you can.
-- reply 7.78
